Consider the following molecules and their measured solubility readings.
Assay: Aqueous solubility of the compound
Type: physicochemical

| SMILES REPR | solubility |
| --- | --- |
| CS(=O)(=O)c1ccc(-n2nc(C(F)F)cc2-c2ccccc2)nc1 | > 200 µg/mL |
| CC(C)(C)CNc1c(C#N)c(C(F)(F)F)nn1-c1ccc(S(C)(=O)=O)cn1 | < 25 µg/mL |
| CC(C)COc1c(C#N)c(C(F)(F)F)nn1-c1ccc(S(C)(=O)=O)cn1 | < 25 µg/mL |
